Target Entity: Human P2Y12 receptor (Homo sapiens, UniProt Q9H244)
Construct: expressed in transfected cells; host or cells: HEK cells
Sequence (Q9H244 whole entry): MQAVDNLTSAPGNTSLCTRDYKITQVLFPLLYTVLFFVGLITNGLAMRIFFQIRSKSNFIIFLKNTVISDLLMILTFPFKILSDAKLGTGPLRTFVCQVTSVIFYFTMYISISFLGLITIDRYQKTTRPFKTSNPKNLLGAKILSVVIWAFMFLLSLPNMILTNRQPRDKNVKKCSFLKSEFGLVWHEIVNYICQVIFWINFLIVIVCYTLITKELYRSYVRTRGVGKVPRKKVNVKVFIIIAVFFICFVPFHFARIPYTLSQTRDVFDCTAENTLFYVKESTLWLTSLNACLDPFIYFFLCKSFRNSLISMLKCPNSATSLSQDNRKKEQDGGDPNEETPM
Experimental Protocol: Human P2Y12 receptor cell membrane binding assay with [3H] 2-Mes-ADP
Applied Conditions: 1 nM [3H] 2-Mes-ADP, membranes of HEK cells expressing P2Y12 receptor; read-out: Binding activity (IC50)
Listed here are compounds together with their documented pIC50.
Value format note: pIC50 is -log10 of concentration (mol/L); just state the number.

Below are worked cases with known answers.
> print(dat)
                                   compound                             target.entity  test.value
1  CCCc1cc2c(N3CCn4c(nnc4C(F)(F)F)C3)nc(N3CC[C@H](C(=O)OC(C)C)C3)nc2s1 [Example 1-58]  Human P2Y12 receptor (Homo sapiens, UniProt Q9H244)        6.72
2  CCCc1cc2c(N3CCn4c(nnc4C(F)(F)F)C3)nc(N3CCCC3CO)nc2s1 (centres unmarked) [Example 1-30]  Human P2Y12 receptor (Homo sapiens, UniProt Q9H244)        7.18
3  CCCc1cc2c(N3CCn4c(nnc4C(F)(F)F)C3)nc(N3CCC(=NOC)C3)nc2s1 [Example 1-20]  Human P2Y12 receptor (Homo sapiens, UniProt Q9H244)        6.79
4  CCCc1cc2c(N3CCn4c(nnc4C(F)(F)F)C3)nc(C(=O)NCCC(=O)OCC)nc2s1 [Example 4-6]  Human P2Y12 receptor (Homo sapiens, UniProt Q9H244)        5.54

Name the recorded pIC50 of CCc1nc2c(N3CCn4c(nnc4C(F)(F)F)C3)nc(NCCO)nc2s1 [Example 5-2] , assay system Human P2Y12 receptor (Homo sapiens, UniProt Q9H244).
5.63

Name the recorded pIC50 of CCc1cc2c(N3CCn4c(nnc4C(F)(F)C(F)(F)F)C3)nc(OCC(O)CO)nc2s1 (centres unmarked) [Example 6-3] , assay system Human P2Y12 receptor (Homo sapiens, UniProt Q9H244).
6.21

Name the recorded pIC50 of CCCc1cc2c(N3CCn4c(nnc4C(F)(F)F)C3)nc(Oc3cccnc3)nc2s1 [Example 3-29] , assay system Human P2Y12 receptor (Homo sapiens, UniProt Q9H244).
6.66

Name the recorded pIC50 of CCCc1cc2c(N3CCn4c(nnc4C(F)(F)C(F)(F)F)C3)nc(NCCO)nc2s1 [Example 6-7] , assay system Human P2Y12 receptor (Homo sapiens, UniProt Q9H244).
6.31

###

Target Entity: Human P2Y12 receptor (Homo sapiens)
Construct: expressed in transfected cells; host or cells: HEK cells
Experimental Protocol: Human P2Y12 receptor cell membrane binding assay with [3H] 2-Mes-ADP
Applied Conditions: 1 nM [3H] 2-Mes-ADP, membranes of HEK cells expressing P2Y12 receptor; read-out: Binding activity (IC50)
Listed here are molecules together with their documented pIC50.
Value format note: pIC50 is -log10 of concentration (mol/L); just state the number.

Below are worked cases with known answers.
> print(dat)
                         structure.notation  test.value
1  CCc1cc2c(N3CCc4c([nH]n(CCO)c4=O)C3)nc(N3CCNC(=O)C3)nc2s1        4.33
2  CCCc1cc2c(N3CCn4c(nnc4C(F)(F)F)C3)nc(C(=O)N3CCN(C)CC3)nc2s1        5.31
3  CCCc1cc2c(N3CCn4c(nnc4C(F)(F)F)C3)nc(N3CCn4cnnc4C3)nc2s1        7.49

Give the reported pIC50 for this molecule. CCCc1cc2c(N3CCn4c(nnc4C(F)(F)F)C3)nc(N3CC[C@@H](C(=O)OC(C)C)C3)nc2s1
6.49

Give the reported pIC50 for this molecule. CCCc1cc2c(N3CCn4c(nnc4C(F)(F)F)C3)nc(OCC(=O)O)nc2s1
6.08

Give the reported pIC50 for this molecule. CCCc1cc2c(N3CCn4c(nnc4C(F)(F)F)C3)nc(N3CCN(C(=O)CO)CC3)nc2s1
7.15

Give the reported pIC50 for this molecule. CCCc1cc2c(N3CCn4c(nnc4C(F)(F)F)C3)nc(N3CC[C@@H](C(=O)O)C3)nc2s1
7.96

Give the reported pIC50 for this molecule. O[C@@H]1CCN(c2nc(N3CCn4c(nnc4C(F)(F)F)C3)c3cc(CCC(F)(F)F)sc3n2)C1
6.59
